The measured values listed here are drawn from patent US20200040103A1.

# measured.on: recombinant human KLK5 (human) (UniProt Q9Y337)
# Sequence (Q9Y337 67-293): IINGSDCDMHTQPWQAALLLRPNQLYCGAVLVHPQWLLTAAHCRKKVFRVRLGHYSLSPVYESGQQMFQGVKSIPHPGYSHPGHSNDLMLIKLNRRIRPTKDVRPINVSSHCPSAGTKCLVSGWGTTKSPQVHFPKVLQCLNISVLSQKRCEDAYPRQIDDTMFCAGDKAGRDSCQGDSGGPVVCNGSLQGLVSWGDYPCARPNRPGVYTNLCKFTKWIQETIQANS
# measurement.notes: pro-KLK1 LC/MS assay, 0.5 nM KLK5, 300 nM pro-KLK1; box column 2 of 3; no unit printed, nM per text
pIC50: −log10 of the molar value.
measure: pIC50

1. 8B7 (antibody, V domains shown) VH: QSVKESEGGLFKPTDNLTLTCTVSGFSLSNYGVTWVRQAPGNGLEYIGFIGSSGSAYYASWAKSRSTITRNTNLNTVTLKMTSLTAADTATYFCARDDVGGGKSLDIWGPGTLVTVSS VL: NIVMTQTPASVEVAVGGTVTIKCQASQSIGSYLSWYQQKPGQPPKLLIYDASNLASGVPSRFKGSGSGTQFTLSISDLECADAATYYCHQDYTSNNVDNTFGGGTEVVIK = 9.88
2. 10C5 (antibody, V domains shown) VH: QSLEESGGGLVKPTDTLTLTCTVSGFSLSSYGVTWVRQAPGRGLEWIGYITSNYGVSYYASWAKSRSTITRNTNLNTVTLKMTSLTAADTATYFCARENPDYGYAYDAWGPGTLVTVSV VL: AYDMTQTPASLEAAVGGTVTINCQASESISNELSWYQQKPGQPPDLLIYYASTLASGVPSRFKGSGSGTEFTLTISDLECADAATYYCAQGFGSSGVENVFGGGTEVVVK = 9.91
